This collection of values is drawn from PubChem BioAssay AID2060899.

system: 565726-208-R1-J5-PDC complex spheroids, growth inhibition; assay: Anticancer human tumor 565726-208-R1-J5-PDC patient-derived pancreatic adenocarcinoma cell line growth inhibition [RAS]; settings: second compound 0.316 µM; first compound 0.3 µM; active compounds read low;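 also: spheroids exposed to compounds for seven days before readout; 100% = DMSO vehicle control viability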
viability, T/C values by entry

Completed entries (count: 3):
molecule="CCc1c2c(nc3ccc(O)cc13)-c1cc3c(c(=O)n1C2)COC(=O)[C@]3(O)CC + C=CC(=O)N1CCN(c2nc(OCC3CCCN3C)nc3c(F)c(-c4nc(N)cc(C)c4C(F)(F)F)c(Cl)cc23)C(C)C1" system_under_test="565726-208-R1-J5-PDC complex spheroids, growth inhibition" quantity_name="viability, T/C" value_reported=8.96%
molecule="CC1(C)CCC(Nc2ncc(C(F)(F)F)c(-c3c[nH]c4c(P(C)(C)=O)c(C#N)ccc34)n2)CN1 (centres undefined) + C=CC(=O)N1CCN(c2nc(OCC3CCCN3C)nc3c(F)c(-c4nc(N)cc(C)c4C(F)(F)F)c(Cl)cc23)C(C)C1" system_under_test="565726-208-R1-J5-PDC complex spheroids, growth inhibition" quantity_name="viability, T/C" value_reported=34.6%
molecule="CCc1c2c(nc3ccc(O)cc13)-c1cc3c(c(=O)n1C2)COC(=O)[C@]3(O)CC + C#Cc1c(F)ccc2cc(O)cc(-c3ncc4c(N5CC6CCC(C5)N6)nc(OCC56CCCN5CC(F)C6)nc4c3F)c12" system_under_test="565726-208-R1-J5-PDC complex spheroids, growth inhibition" quantity_name="viability, T/C" value_reported=6.04%

Consider now this further molecule.
viability, T/C in this record for CC1(C)CCC(Nc2ncc(C(F)(F)F)c(-c3c[nH]c4c(P(C)(C)=O)c(C#N)ccc34)n2)CN1 (centres undefined) + C#Cc1c(F)ccc2cc(O)cc(-c3ncc4c(N5CC6CCC(C5)N6)nc(OCC56CCCN5CC(F)C6)nc4c3F)c12 : 37.6%
